Reported Result at (lowest administration level at which super or MS activity was achieved) values follow for various molecules
Target: human PPARα (Homo sapiens, UniProt Q07869)
Construct: The coding region of a human PPARα cDNA was inserted downstream of the CMV promoter; expressed in transfected cells; host or cells: Cos-7 cells, transient transfection (pcDNA3.1(−)-PPARα, pRSV-RXRα, 3xPPRE-TK-luc reporter, pRL-TK)
Sequence (Q07869 whole entry): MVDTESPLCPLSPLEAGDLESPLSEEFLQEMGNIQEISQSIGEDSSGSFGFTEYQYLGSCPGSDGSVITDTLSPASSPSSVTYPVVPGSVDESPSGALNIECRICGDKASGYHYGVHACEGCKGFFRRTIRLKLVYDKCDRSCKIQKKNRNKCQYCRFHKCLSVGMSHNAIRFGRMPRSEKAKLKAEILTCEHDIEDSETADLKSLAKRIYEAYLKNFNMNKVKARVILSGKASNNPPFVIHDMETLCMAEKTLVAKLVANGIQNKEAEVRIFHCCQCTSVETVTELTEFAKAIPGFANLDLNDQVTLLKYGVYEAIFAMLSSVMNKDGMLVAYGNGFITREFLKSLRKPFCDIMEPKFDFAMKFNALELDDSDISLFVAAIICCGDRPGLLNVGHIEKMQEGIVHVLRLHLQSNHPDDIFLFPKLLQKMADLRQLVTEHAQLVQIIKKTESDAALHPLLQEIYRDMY
Sequence (P19793 whole entry partner): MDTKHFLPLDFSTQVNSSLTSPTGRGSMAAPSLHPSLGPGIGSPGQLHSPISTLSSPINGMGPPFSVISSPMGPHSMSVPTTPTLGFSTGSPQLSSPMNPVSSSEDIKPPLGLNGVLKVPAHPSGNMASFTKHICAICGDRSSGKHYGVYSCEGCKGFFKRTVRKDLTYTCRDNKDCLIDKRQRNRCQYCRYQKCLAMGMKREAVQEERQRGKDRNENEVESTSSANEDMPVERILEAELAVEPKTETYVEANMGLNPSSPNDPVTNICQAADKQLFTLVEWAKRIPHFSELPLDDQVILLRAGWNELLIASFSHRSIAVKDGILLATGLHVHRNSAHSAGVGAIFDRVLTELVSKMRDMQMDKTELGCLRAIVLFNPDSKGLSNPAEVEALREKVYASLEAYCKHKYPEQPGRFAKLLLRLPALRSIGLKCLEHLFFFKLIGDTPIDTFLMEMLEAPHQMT
Experiment Summary: PPARα reporter gene assay (firefly luciferase, transiently transfected Cos-7 cells)
Assay type: cell-based
Experimental Readout: Result at (lowest administration level at which super or MS activity was achieved) (μm)

Molecule | Target | Units Text | Result Value
CCCCC/C=C\C=C\CCCCCCCCC(=O)O [CLA (t10, c12), trans-10-cis-12 conjugated linoleic acid] | human PPARα (Homo sapiens, UniProt Q07869) | μm | 100
CCCCC/C=C\C/C=C\CC/C=C/CCCC(=O)O | human PPARα (Homo sapiens, UniProt Q07869) | μm | 25
CC\C=C/C=C/C=C/C=C\CCCCCCCC(=O)O [cis parinaric acid, cis-parinaric acid] | human PPARα (Homo sapiens, UniProt Q07869) | μm | 25
CCC=CCC=CC/C=C\CCCCCCCCCC(=O)O [cis-11,14,17 eicosatrienoic acid] | human PPARα (Homo sapiens, UniProt Q07869) | μm | 100
CC/C=C/C/C=C/C/C=C/CCCCCCCC(=O)O | human PPARα (Homo sapiens, UniProt Q07869) | μm | 25
CCCCCCCCCCC/C=C/CCCCC(=O)O | human PPARα (Homo sapiens, UniProt Q07869) | μm | 100
CCCCCC[C@@H](O)C/C=C/CCCCCCCC(=O)O | human PPARα (Homo sapiens, UniProt Q07869) | μm | 25
CCCCCCCCCCC/C=C\CCCCC(=O)O | human PPARα (Homo sapiens, UniProt Q07869) | μm | 100
CCCCCC=CC/C=C\CCCCCCCCCC(=O)O [cis-11,14-eicosadienoic acid] | human PPARα (Homo sapiens, UniProt Q07869) | μm | 100
CCCCCCC(O)CCCCCCCCCCC(=O)O (stereo not shown) [12-hydroxystearic acid] | human PPARα (Homo sapiens, UniProt Q07869) | μm | 25
Cc1cccc(Nc2cc(Cl)nc(SCC(=O)O)n2)c1C [WY14,643, reference compound] | human PPARα (Homo sapiens, UniProt Q07869) | μm | 100
CCCCC/C=C\C/C=C\CCCCCCCC(=O)O | human PPARα (Homo sapiens, UniProt Q07869) | μm | 100
CCCCCCCCCC/C=C/CCCCCC(=O)O [Trans-7-octadecenoic acid] | human PPARα (Homo sapiens, UniProt Q07869) | μm | 10
CCCCCCCCCCCCCC/C=C\CCCC(=O)O [cis-5 eicosenoic acid] | human PPARα (Homo sapiens, UniProt Q07869) | μm | 100
CCCCCC/C=C/C=C\CCCCCCCC(=O)O [CLA (c9, t11), cis-9-trans-11 conjugated linoleic acid] | human PPARα (Homo sapiens, UniProt Q07869) | μm | 25
CCCCCC=CCC=CC/C=C\CCCCCCC(=O)O [cis-8,11,14 eicosatrienoic acid] | human PPARα (Homo sapiens, UniProt Q07869) | μm | 100
CC/C=C\C/C=C\C/C=C\C/C=C\CCCCC(=O)O | human PPARα (Homo sapiens, UniProt Q07869) | μm | 25
CCCCCC=CCC=CCC=CC/C=C\CCCCCC(=O)O [cis-7,10,13,16 docosatetraenoic acid] | human PPARα (Homo sapiens, UniProt Q07869) | μm | 100
CCCCCC/C=C/C=C/CCCCCCCC(=O)O | human PPARα (Homo sapiens, UniProt Q07869) | μm | 100
